# study-system: SIRT1 (Homo sapiens)
# test: Mass spectrometry based SIRT1 deacetylation (activation) assay
# Type: biochemical
# measurement-parameters: 0.5 μM peptide substrate, 120 μM βNAD+, 10 nM SIRT1, 25 min at 25° C.
# From the text: A mass spectrometry based assay was used to identify modulators of SIRT1 activity. The mass spectrometry based assay utilizes a peptide having 20 amino acid residues as follows: Ac-EE-K(biotin)-GQSTSSHSK(Ac)NleSTEG-K(5TMR)-EE-NH2 (SEQ ID NO: 1) wherein K(Ac) is an acetylated lysine residue and Nle is a norleucine. The peptide is labeled with the fluorophore 5TMR (excitation 540 nm/emission 580 nm) at the C-terminus. The sequence of the peptide substrate is based on p53 with several modifications. […]
observable: EC1.5

Looking up CN(C)CCNc1cc(C(=O)Nc2ccccc2-c2ncc(C(C)(C)C)o2)nc(-c2ccccc2)n1 [Compound 39] , I see its EC1.5 listed as B (EC1.5>1 and ≦10 uM)

Looking up O=C(Nc1ccccc1C(=O)c1nccs1)c1cc(N2CCOCC2)nc(-c2ccccc2)n1 [Compound 176] , I see its EC1.5 listed as A (EC1.5≦1 uM)

Looking up CCc1nnc(-c2ccccc2NC(=O)c2cc(N(C)CCN(C)C)nc(-c3ccccc3)n2)s1 [Compound 56] , I see its EC1.5 listed as B (EC1.5>1 and ≦10 uM)

Looking up CNCCN(C)c1cc(C(=O)Nc2ccccc2-c2nnc(-c3ccccc3)s2)nc(-c2ccccc2)c1 [Compound 44] , I see its EC1.5 listed as A (EC1.5≦1 uM)

Looking up CCC(=O)c1ccccc1NC(=O)c1cc(NCCN(C)C)nc(-c2ccccc2)n1 [Compound 126] , I see its EC1.5 listed as B (EC1.5>1 and ≦10 uM)

Please state, for each entry, its recorded EC1.5.
1. CCN(CCN(C)C)c1cc(C(=O)Nc2ccccc2C(=O)NC2CC2)nc(-c2ccccc2)n1 [Compound 168]
2. CCN(CCN(C)C)c1cc(C(=O)Nc2ccccc2-c2nnc(NC(=O)N3CCOCC3)s2)nc(-c2ccccc2)n1 [Compound 113]

Ans:
A (EC1.5≦1 uM)
A (EC1.5≦1 uM)

* * *

# study-system: SIRT1 (Homo sapiens, UniProt Q96EB6)
# Sequence (Q96EB6 1-747): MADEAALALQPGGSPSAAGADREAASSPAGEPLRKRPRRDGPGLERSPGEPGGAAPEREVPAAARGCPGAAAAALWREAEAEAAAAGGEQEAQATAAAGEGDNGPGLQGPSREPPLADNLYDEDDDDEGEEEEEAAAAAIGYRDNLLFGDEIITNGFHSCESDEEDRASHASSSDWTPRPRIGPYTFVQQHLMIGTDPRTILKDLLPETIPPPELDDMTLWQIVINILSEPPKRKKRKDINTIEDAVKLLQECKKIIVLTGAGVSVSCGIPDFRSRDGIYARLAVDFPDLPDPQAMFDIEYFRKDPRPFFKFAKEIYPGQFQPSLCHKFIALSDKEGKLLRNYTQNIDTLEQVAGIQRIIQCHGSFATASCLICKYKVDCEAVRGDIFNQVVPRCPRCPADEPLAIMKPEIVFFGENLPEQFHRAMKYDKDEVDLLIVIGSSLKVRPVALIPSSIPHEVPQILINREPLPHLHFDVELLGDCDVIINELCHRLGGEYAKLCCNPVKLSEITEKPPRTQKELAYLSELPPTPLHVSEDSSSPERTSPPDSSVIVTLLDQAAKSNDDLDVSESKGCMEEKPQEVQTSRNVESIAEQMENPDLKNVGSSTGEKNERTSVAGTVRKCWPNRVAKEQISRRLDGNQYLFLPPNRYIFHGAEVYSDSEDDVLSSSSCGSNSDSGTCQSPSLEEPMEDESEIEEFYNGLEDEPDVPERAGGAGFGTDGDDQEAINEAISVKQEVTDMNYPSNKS
# test: Mass spectrometry based SIRT1 deacetylation (activation) assay
# Format: biochemical
# measurement-parameters: 0.5 μM peptide substrate, 120 μM βNAD+, 10 nM SIRT1, 25 min at 25° C.
observable: EC1.5

Looking up CCN(CCN(C)C)c1cc(C(=O)Nc2ccccc2C(=O)NC2CCCNC2)nc(-c2ccccc2)n1 (centres unmarked) [Compound 174] , I see its EC1.5 listed as B (EC1.5>1 and ≦10 uM)

Looking up CCN(CCN(C)C)c1cc(C(=O)Nc2ccccc2C(=O)NC2CCC2)nc(-c2ccccc2)n1 [Compound 164] , I see its EC1.5 listed as A (EC1.5≦1 uM)

Looking up CN(C)CCNc1cc(C(=O)Nc2ccccc2-c2nnc(N3CCOCC3)s2)nc(-c2ccccc2)n1 [Compound 101] , I see its EC1.5 listed as A (EC1.5≦1 uM)

Looking up CN(C)CCNC(=O)c1nnc(-c2ccccc2NC(=O)c2cc(NCCN(C)C)nc(-c3ccccc3)n2)s1 [Compound 58] , I see its EC1.5 listed as A (EC1.5≦1 uM)

Looking up CC(=O)c1ccccc1NC(=O)c1cc(N2CCNCC2)nc(-c2ccccc2)n1 [Compound 138] , I see its EC1.5 listed as B (EC1.5>1 and ≦10 uM)

Please state, for each entry, its recorded EC1.5.
1. CN(C)CCNc1cc(C(=O)Nc2ccccc2C(=O)Nc2cc(Cl)ccc2Cl)nc(-c2ccccc2)n1 [Compound 161]
2. O=C(Nc1ccccc1-c1nncs1)c1cc(OCC(O)CO)nc(-c2ccccc2)n1 (centres unmarked) [Compound 111]
3. CC(C)(C)c1cnc(-c2ccccc2NC(=O)c2cc(N3CCOCC3)cc(-c3ccccc3)n2)o1 [Compound 70]

Ans:
["B (EC1.5>1 and ≦10 uM)", "A (EC1.5≦1 uM)", "A (EC1.5≦1 uM)"]

* * *

Exercise: for every item that follows, state its recorded Emax.
# study-system: SIRT1 (Homo sapiens, UniProt Q96EB6)
# test: Mass spectrometry based SIRT1 deacetylation (activation) assay
# Assay type: biochemical
# measurement-parameters: 25 min, 0.5 μM peptide substrate, 120 μM βNAD+, 10 nM SIRT1, 25 min at 25° C., read-out: % Fold Act. (percent maximum fold activation)

Below: 3 compounds and their reported Emax.
Looking up CCN(CCN(C)C)c1cc(C(=O)Nc2ccccc2-c2nnc(-c3ccncc3)s2)nc(-c2ccccc2)n1 , I see its Emax listed as ≥ 300%

Looking up CN(C)CCNc1cc(C(=O)Nc2ccccc2C(=O)Nc2ccccn2)nc(-c2ccccc2)n1 , I see its Emax listed as 150 to 300%

Looking up CN(C)CCNc1cc(C(=O)Nc2ccccc2C(=O)Nc2cccc(S(C)(=O)=O)c2)nc(-c2ccccc2)n1 , I see its Emax listed as ≥ 300%

Please state, for each entry, its recorded Emax.
1. Cc1nnc(-c2ccccc2NC(=O)c2cc(NCCN(C)C)nc(-c3ccccc3)n2)s1
2. CN(C)CCNc1cc(C(=O)Nc2ccccc2C(=O)Nc2ccc(Cl)c(Cl)c2)nc(-c2ccccc2)n1
3. CN(C)CCNc1cc(C(=O)Nc2ccccc2-c2ccccc2)nc(-c2ccccc2)n1
4. CC(=O)c1ccccc1NC(=O)c1cc(NC2CCN(C)CC2)nc(-c2ccccc2)n1
5. O=C(Nc1ccccc1-c1nncs1)c1cc(OCC(O)CO)nc(-c2ccccc2)n1 (centres unmarked)

Ans:
["150 to 300%", "150 to 300%", "< 150%", "≥ 300%", "≥ 300%"]

* * *

# study-system: SIRT1 (Homo sapiens, UniProt Q96EB6)
# Sequence (Q96EB6 1-747): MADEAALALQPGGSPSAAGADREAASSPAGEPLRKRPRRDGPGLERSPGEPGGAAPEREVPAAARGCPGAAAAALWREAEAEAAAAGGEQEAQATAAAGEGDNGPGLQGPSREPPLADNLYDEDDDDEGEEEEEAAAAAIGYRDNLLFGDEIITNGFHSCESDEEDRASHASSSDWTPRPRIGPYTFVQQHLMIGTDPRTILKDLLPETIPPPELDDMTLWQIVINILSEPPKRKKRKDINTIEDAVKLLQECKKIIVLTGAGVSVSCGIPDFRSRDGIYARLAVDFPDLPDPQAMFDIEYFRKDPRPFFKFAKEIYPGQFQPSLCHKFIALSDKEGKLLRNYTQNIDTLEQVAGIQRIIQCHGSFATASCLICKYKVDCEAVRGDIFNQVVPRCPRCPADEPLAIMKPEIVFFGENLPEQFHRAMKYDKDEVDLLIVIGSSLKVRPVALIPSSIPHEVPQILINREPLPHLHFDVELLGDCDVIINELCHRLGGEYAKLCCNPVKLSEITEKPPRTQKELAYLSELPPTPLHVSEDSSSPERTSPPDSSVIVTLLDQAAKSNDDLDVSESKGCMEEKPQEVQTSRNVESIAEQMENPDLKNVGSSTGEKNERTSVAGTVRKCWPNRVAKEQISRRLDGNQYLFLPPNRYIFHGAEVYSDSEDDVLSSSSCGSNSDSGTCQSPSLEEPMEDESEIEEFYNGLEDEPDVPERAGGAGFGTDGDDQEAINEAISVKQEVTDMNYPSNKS
# test: Mass spectrometry based SIRT1 deacetylation (activation) assay
# Format: biochemical
# measurement-parameters: 0.5 μM peptide substrate, 120 μM βNAD+, 10 nM SIRT1, 25 min at 25° C.
observable: EC1.5

// returns EC1.5 for CN(C)CCNc1cc(C(=O)Nc2ccccc2-c2cccnc2)nc(-c2ccccc2)n1 with SIRT1 (Homo sapiens, UniProt Q96EB6); value = B (EC1.5>1 and ≦10 uM)

// returns EC1.5 for CCN(CCN(C)C)c1cc(C(=O)Nc2ccccc2C(=O)NC2CCN(C(=O)OC(C)(C)C)C2)nc(-c2ccccc2)n1 (stereo not shown) with SIRT1 (Homo sapiens, UniProt Q96EB6); value = B (EC1.5>1 and ≦10 uM)
